- targetOrSystem: T315I Bcr-abl (Ba/F3 cells) (Homo sapiens, UniProt P00519, T315I)
- Construct: expressed in transfected cells; host or cells: Ba/F3 (murine pro-B cells); the other entry of the earlier key: BCR (P11274, Breakpoint cluster region protein)
- protocolNotes: Proliferation of Ba/F3 cells expressing T315I Bcr-abl
- Format: cell-based
pIC50: −log10 of the molar value.
recordedEndpoint: pIC50

# pIC50 of CCN1CCN(Cc2ccc(NC(=O)c3ccc(C)c(NC(=O)N(C)c4ncnc5[nH]ccc45)c3)cc2C(F)(F)F)CC1 = > 8.30

----------
- targetOrSystem: G250E Bcr-abl (Ba/F3 cells) (Homo sapiens, UniProt P00519, G250E)
- Construct: the other entry of the earlier key: BCR (P11274, Breakpoint cluster region protein)
- protocolNotes: Proliferation of Ba/F3 cells expressing G250E Bcr-abl
recordedEndpoint: IC50

# IC50 of CCN1CCN(Cc2ccc(NC(=O)c3ccc(C)c(NC(=O)N(C)c4ncnc5[nH]ccc45)c3)cc2C(F)(F)F)CC1 = < 5 nM
